System: NCI-H460 lung
ASSAY PROCEDURE: NCI-60 one-dose screen, 48 h
MEASUREMENT SETUP: 10 µM unless noted
This is part of a sample that, as a whole, favours compounds with a hit. Of some 83,000 tested, about 20% had one in any assay. Calls of active or inactive are those of the source. How the source made its calls: active means growth percent below 10; inactive means the rest.
One label from this list, please: active, inactive

Worked examples follow.
[Q] Which outcome was entered for the compound CCCCNc1nnc(-c2cc(-c3cc4ccccc4o3)nn2-c2ccccc2)o1 in this test?
[A] inactive

[Q] Entry to check: CCc1c(C(=O)Nc2ccc3ccccc3c2)[nH]c(C)c1C(C)=O
[A] inactive

[Q] Now consider COc1ccccc1CNCCCN1C(=O)c2ccc3c4c(ccc(c24)C1=O)C(=O)N(CCCNCCCCNCCCCN)C3=O and answer again.
[A] active

[Q] Could you do the same for CCN1C(=S)N(CC)C2Nn3c(s/c(=C4\C(=O)N(C)c5ccccc54)c3=O)=NC21 (centres undefined) , please?
[A] inactive

[Q] Continue with COc1cc(/C=C\c2cc(OC)c(OC)c(OC)c2)cc(N/C=C\C(=O)c2c[nH]c3ccccc23)c1OC
[A] inactive

[Q] Could you do the same for ClC1=C(Cl)C(Cl)=C(Cl)C1=Cc1ccc(Cl)cc1Cl , please?
[A] active

Further cases:
[Q] What did this assay record as the result for COc1ccc2c(c1)C(C)Cc1c(N(C)C)ncnc1N2C (centres undefined) ?
[A] inactive

[Q] Do the same for COc1cc2c(cc1OCCCCn1c(-c3cc(=O)c4ccccc4o3)nc3ccccc31)N=C[C@@H]1CCCN1C2=O please
[A] inactive

[Q] Param item: O=S(=O)(NCCNc1cc(-c2cn(-c3ccccc3)nc2-c2ccccc2)ccn1)c1ccc(F)cc1
[A] inactive

This collection of values is drawn from PubChem BioAssay (NCI).
